test system: HL-60(TB) leukemia; experiment: NCI-60 one-dose screen, 48 h; settings: 10 µM unless noted
The panel holds about 83,000 compounds, 20% with a hit somewhere; the sample as a whole holds those more often. The source made the active and inactive calls. Rule for the calls: active = growth percent below 10; inactive = the rest.
Assign a class; possible classes are 1.0 = active, 0.0 = inactive

How did this test come out for "Nc1ncn([C@@H]2O[C@H](CO)[C@@H](O)[C@H]2O)c(=O)n1" ?
1.0

For COC(CCCl)c1ccc(Cl)cc1 (stereo unspecified) , what call appears in the results of this test?
0.0

For "COc1cccc(-c2nc3sccn3c2-c2ccnc(NCCNC(=O)c3ccccc3)n2)c1" , which call appears in the assay record?
0.0

Look up the recorded call for "Cc1cc(C(N)=O)cc(C)c1C(=O)OCCCl" in this test.
0.0

Record lookup: outcome of this test for CN1CCCCC1CCN1c2ccccc2Sc2ccc(Br)cc21 (stereo unspecified) ?
0.0

Please let me know the test result on file for "COc1ccc(C(=O)CCC(=O)O)cc1" .
0.0

Hi, sorry to bother you, what did the test record for CC(C)=CCNc1ncnc2c1ncn2C1OC(COP(=O)(O)O)C(O)C1O (stereo unspecified) ?
1.0

Check the results log: what was the call for "COc1cccc(/C=C/c2c(C(=O)O)cccc2[N+](=O)[O-])c1OC" ?
0.0

----------
tested on: HL-60(TB) leukemia; test: NCI-60 one-dose screen, 48 h; conditions: 10 µM unless noted
This is part of a sample that, as a whole, favours compounds with a hit. Of some 83,000 tested, about 20% had one in any assay. Calls of active or inactive are those of the source. The calls were made as follows: active = growth percent below 10; inactive = the rest.
Tick one outcome: active, inactive

Examples with answers:
- Sample smiles: "O=C(Cn1cc(CN2CCN(c3ccnc4cc(Cl)ccc34)CC2)nn1)Nc1cccc([N+](=O)[O-])c1"
  Class: "inactive"
- Sample smiles: "COc1cccc(-c2nc3sccn3c2/C=C/C(=O)c2ccc(C(F)(F)F)cc2)c1"
  Class: "inactive"
- Sample smiles: "COC(=O)CC1=C(C)/C(=C/c2[nH]c(-c3ccc[nH]3)cc2OC)N=C1C"
  Class: "active"
- Sample smiles: "CC(C)=NNC(N)=S"
  Class: "inactive"
- Sample smiles: "COC(=O)c1c2c(c(C)[n+]([O-])c1C)C(=O)C(NCc1ccc(F)c(F)c1)=CC2=O"
  Class: "active"

# input for lookup
Entry "CN1CCN(CC(=O)Nc2ccc(-c3nc4ccccc4s3)cc2)CC1" : call = ?
inactive

----------
test system: A498 renal; experiment: NCI-60 one-dose screen, 48 h; conditions: 10 µM unless noted
This is part of a sample that, as a whole, favours compounds with a hit. Of some 83,000 tested, about 20% had one in any assay. The source made the active and inactive calls. The calls were made as follows: active = growth percent below 10; inactive = the rest.
Outcomes you can answer with include only these: true (1) for active, false (0) for inactive

Example cases with answers are listed next.
- Molecule: "CCC(C)/C=C(C)/C=C/C(=O)c1c(O)c(-c2ccc(O)cc2)c[nH]c1=O (stereo not drawn)"
  Class: "false (0)"
- Molecule: "O=C(O)C1[O][Sb][O]C1C(=O)O (stereo not drawn)"
  Class: "false (0)"
- Molecule: "CN1CCN(C(=O)COc2ccc(/C=C3\\CC4C5CC=C6CC(Cl)CCC6(C)C5CCC4(C)C3=O)cc2)CC1 (stereo not drawn)"
  Class: "false (0)"
- Molecule: "CC(=O)N1N=C(c2ccccc2)CC1c1sc(N(CCCl)CCCl)nc1Cl (stereo not drawn)"
  Class: "false (0)"
- Molecule: "CNC(C)Cc1ccccc1 (stereo not drawn) (tested in a mixture with another compound)"
  Class: "false (0)"

Called result for "FC(F)=C(F)c1ccccc1"
false (0)

Outcome logged for CCCCCCCCCCOc1ccc(C(=O)Oc2ccc(CSP3(=O)OCC4OC(n5ccc(=O)[nH]c5=O)C(F)C4OP(=O)(O)OCC4OC(n5cnc6c(N)ncnc65)C(F)C4O3)cc2)cc1 (stereo not drawn) in this assay:
true (1)

What call does the record list for CNc1ccc(C(=O)CC(O)CCC(C)C2OC(=O)CC(O)CC(=O)CC(O)CC(O)CC(O)CC(O)CC3(O)CC(O)C(C(=O)OC)C(CC(O[C@@H]4O[C@H](C)[C@@H](O)[C@H](N)[C@@H]4O)/C=C/C=C/C=C/C=C/C=C/C=C/C=C/C2C)O3)cc1 (stereo partly drawn) ?
true (1)

I'd appreciate the recorded outcome for "CC1(C)CC(=O)CC(C)(C)N1N=O" from this test.
false (0)

Which outcome was entered for the molecule "c1cnc2c(c1)ccc1ncccc12" in this test?
false (0)

Lab log entry: O=C1NC(=O)C(CN2C(=O)C3(c4ccccc42)[C@H](Cl)C(=O)N3c2ccccc2)C(=O)N1 (stereo partly drawn) — outcome as called in the assay?
false (0)

Name the outcome recorded for "O=c1[nH]c2cc(Cl)ccc2n1C1CCN(CCCC(c2ccc(F)cc2)c2ccc(F)cc2)CC1" in the assay.
true (1)

Field: outcome | Entry: "ClCCN(CCCl)c1ccc(C=NCCc2c[nH]c3ccccc23)cc1"
true (1)

Hi team, can someone confirm the assay call for C[C@]12CCC(=O)CC1CC[C@@H]1C2CC[C@@]2(C)C1CC[C@@H]2OC(=O)CC[Se][Se]CCC(=O)O[C@H]1CCC2[C@@H]3CCC4CC(=O)CC[C@]4(C)C3CC[C@@]21C (stereo partly drawn) ?
false (0)

What did this assay record as the result for "O=C(C(=O)N1CCCC1)c1cn(CCCCCn2cc(C(=O)C(=O)N3CCCC3)c3ccccc32)c2ccccc12" ?
false (0)

Field: outcome | Entry: CC1COC(=O)C1 (stereo not drawn)
false (0)

For "CC(C)CCC[C@@H](C)[C@H]1CC[C@H]2[C@@H]3CC=C4C[C@@H](OC(=O)Cc5ccc(N(CCCl)CCCl)cc5)CC[C@]4(C)[C@H]3CC[C@]12C" , which call appears in the assay record?
false (0)

Status in this test for O=CN1N=C(c2ccccc2)CC1c1sc(N(CCCl)CCCl)nc1Cl (stereo not drawn) ?
false (0)
